molecular target: HLA-A*0201 (Homo sapiens, UniProt P04439, D140Y/D185E/D98H/E176V/E277Q/G131W/G231S/I119V/I121R/I166T/I218V/L300P/L318F/N151K/N90K/P208A/P217A/Q86G/Q94H/R138H/R169H/T345S); experiment: In vitro class I HLA binding assay (fluorescence polarization competition); settings: allele A*0201; fluorescence polarization competition; read-out: IC50 (nM), in vitro HLA binding affinity
Where a SMILES comes first, the peptide text is derived from it.
MEASURED PROPERTY: IC50 (nM)
Give bare numbers, in nM.

Known results for compounds:
CC[C@H](C)[C@H](NC(=O)[C@H](CC(N)=O)NC(=O)[C@H](CC(N)=O)NC(=O)[C@H](CC(C)C)NC(=O)[C@@H](N)Cc1c[nH]cn1)C(=O)N[C@@H](Cc1ccccc1)C(=O)N[C@@H](Cc1c[nH]cn1)C(=O)N[C@@H](Cc1c[nH]cn1)C(=O)N[C@@H](CC(C)C)C(=O)O [RH5_489] (H-HLNNIFHHL-OH); 225
CSCC[C@H](NC(=O)[C@H](CCSC)NC(=O)[C@@H](N)CCCCN)C(=O)N[C@@H](CC(=O)O)C(=O)N[C@@H](CCC(=O)O)C(=O)N[C@@H](Cc1ccc(O)cc1)C(=O)N[C@@H](CC(N)=O)C(=O)N[C@H](C(=O)N[C@@H](CCCCN)C(=O)N[C@@H](CCCCN)C(=O)O)[C@@H](C)O [RH5_302] (H-KMMDEYNTKK-OH); 511000
CC(C)C[C@H](NC(=O)CNC(=O)[C@H](CC(=O)O)NC(=O)[C@H](CC(N)=O)NC(=O)[C@@H](NC(=O)[C@H](CC(N)=O)NC(=O)[C@@H](NC(=O)[C@H](CC(N)=O)NC(=O)[C@H](CC(C)C)NC(=O)[C@@H](N)Cc1ccc(O)cc1)[C@@H](C)O)C(C)C)C(=O)O [RH5_86] (H-YLNTNVNDGL-OH); 2830
CC(C)C[C@H](NC(=O)[C@H](CCC(=O)O)NC(=O)[C@H](CCCCN)NC(=O)[C@H](Cc1ccccc1)NC(=O)[C@H](Cc1c[nH]cn1)NC(=O)[C@H](Cc1ccc(O)cc1)NC(=O)[C@H](CCC(N)=O)NC(=O)[C@H](CC(C)C)NC(=O)[C@@H](N)Cc1ccccc1)C(=O)O [RH5_144] (H-FLQYHFKEL-OH); 14600

Record IC50 for all entries; do not skip any.
1. CC[C@H](C)[C@H](NC(=O)[C@H](CC(C)C)NC(=O)[C@H](CCCCN)NC(=O)[C@H](Cc1c[nH]cn1)NC(=O)[C@@H](NC(=O)[C@@H](N)Cc1ccc(O)cc1)[C@@H](C)CC)C(=O)N[C@@H](CC(C)C)C(=O)N[C@@H](CO)C(=O)N[C@H](C(=O)O)C(C)C [RH5_363] (H-YIHKLILSV-OH)
2. CC[C@H](C)[C@H](NC(=O)[C@H](CC(C)C)NC(=O)[C@H](Cc1c[nH]cn1)NC(=O)[C@H](Cc1c[nH]cn1)NC(=O)[C@H](Cc1ccccc1)NC(=O)[C@@H](NC(=O)[C@@H](N)CC(N)=O)[C@@H](C)CC)C(=O)N[C@@H](Cc1ccc(O)cc1)C(=O)N[C@H](C(=O)O)C(C)C [RH5_492] (H-NIFHHLIYV-OH)

1150
2290

* * *

molecular target: HLA-DRB1*0401 (Homo sapiens, UniProt P01903+P01911, A100K/A169T/F76Y/I96L/K127E/L162R/M171V/N62H/P40V/Q125Y/R42H/S133A/S149N/S66Y/V115G/V209L/W38E); construct: purchased; assay: biochemical; assay type: binding; settings: binding inhibition assay; NB = non-binder (no dose-dependent inhibition); read-out: DRB1*0401 IC50
Where a SMILES comes first, the peptide text is derived from it.
Would you mind telling me the reported IC50 of each entry?

CC[C@H](C)[C@H](NC(=O)[C@H](CS)NC(=O)[C@H](CCC(=O)O)NC(=O)CNC(=O)[C@H](CCCNC(=N)N)NC(=O)[C@H](CO)NC(=O)[C@H](CO)NC(=O)[C@H](CCCNC(=N)N)NC(=O)[C@H](Cc1ccc(O)cc1)NC(=O)[C@H](Cc1ccc(O)cc1)NC(=O)[C@H](Cc1c[nH]cn1)NC(=O)[C@H](CCC(=O)O)NC(=O)[C@H](CCCCN)NC(C)=O)C(=O)N[C@@H](CC(C)C)C(=O)N[C@@H](CC(N)=O)C(=O)N[C@@H](CC(=O)O)C(N)=O [RIPR_017] (Ac-KEHYYRSSRGECILND-NH2); > 100 µM

Now, please, on to the next compound.
Given CC[C@H](C)[C@H](NC(=O)[C@H](CC(N)=O)NC(=O)[C@H](CCC(N)=O)NC(=O)[C@H](CC(N)=O)NC(=O)[C@H](CC(N)=O)NC(=O)[C@H](Cc1ccccc1)NC(=O)[C@@H](NC(=O)[C@H](CS)NC(=O)[C@H](CC(C)C)NC(=O)[C@H](Cc1ccc(O)cc1)NC(=O)[C@H](CC(=O)O)NC(=O)[C@@H](N)Cc1ccc(O)cc1)C(C)C)C(=O)N[C@H](C(=O)N[C@@H](CO)C(=O)N[C@@H](CC(=O)O)C(=O)N[C@@H](CCCCN)C(=O)N[C@@H](CC(N)=O)C(N)=O)[C@@H](C)O [RIPR_007] (H-YDYLCVFNNQNITSDKN-NH2) , state its recorded IC50.
4.6 µM

* * *

Would you mind telling me the reported log10 of IC50 of each entry?
target: HLA-A*2402 (Homo sapiens, UniProt P04439, D101N/D140Y/D185E/E176V/E190D/F33S/G103R/G107R/I119L/I121M/I306V/K335N/L105A/L180Q/L300P/N151K/N90K/Q86E/Q94H/R106L/R138H/R89G/T104I/T345S/V100E/W191G/Y123F); test: In vitro class I HLA binding assay (fluorescence polarization competition); settings: allele A*2402; fluorescence polarization competition; read-out: IC50 (nM), in vitro HLA binding affinity
Where a SMILES comes first, the peptide text is derived from it.
Could you please treat all values as log10 of IC50 in nM?

Known results for compounds:
CC[C@H](C)[C@H](NC(=O)[C@H](Cc1ccccc1)NC(=O)[C@H](CCCCN)NC(=O)[C@H](CCCCN)NC(=O)[C@H](Cc1c[nH]cn1)NC(=O)[C@H](Cc1ccccc1)NC(=O)[C@@H]1CCCN1)C(=O)N[C@@H](CO)C(=O)N[C@@H](Cc1ccccc1)C(=O)N[C@@H](Cc1ccccc1)C(=O)O [CYRPA_004] (H-PFHKKFISFF-OH); 1.55
CSCC[C@H](NC(=O)[C@H](Cc1ccc(O)cc1)NC(=O)[C@@H](N)CC(N)=O)C(=O)NCC(=O)N[C@@H](CC(N)=O)C(=O)N1CCC[C@H]1C(=O)N[C@@H](Cc1c[nH]c2ccccc12)C(=O)N[C@H](C(=O)N[C@@H](CCC(=O)O)C(=O)O)[C@@H](C)O [AMA1_104] (H-NYMGNPWTE-OH); 4.58
CC(C)C[C@H](NC(=O)[C@@H]1CCCN1C(=O)[C@H](Cc1ccc(O)cc1)NC(=O)[C@@H](N)CCC(=O)O)C(=O)N[C@@H](Cc1c[nH]cn1)C(=O)N[C@@H](CCC(N)=O)C(=O)N[C@@H](CCC(=O)O)C(=O)N[C@@H](Cc1c[nH]cn1)C(=O)N[C@H](C(=O)N[C@@H](Cc1ccc(O)cc1)C(=O)O)[C@@H](C)O [AMA1_052] (H-EYPLHQEHTY-OH); 3.00
CC[C@H](C)[C@H](NC(=O)[C@@H](NC(=O)[C@H](Cc1ccc(O)cc1)NC(=O)[C@@H](NC(=O)[C@H](Cc1ccc(O)cc1)NC(=O)[C@H](CCCCN)NC(=O)[C@H](CC(N)=O)NC(=O)[C@H](CC(C)C)NC(=O)[C@H](Cc1ccc(O)cc1)NC(=O)[C@H](C)N)C(C)C)[C@@H](C)O)C(=O)O [RIPR_0063] (H-AYLNKYVYTI-OH); 2.10
CC[C@H](C)[C@H](N)C(=O)N[C@@H](CCCCN)C(=O)N[C@@H](CC(C)C)C(=O)N[C@@H](CC(N)=O)C(=O)N[C@H](C(=O)N[C@@H](Cc1c[nH]c2ccccc12)C(=O)N[C@@H](CCCNC(=N)N)C(=O)N[C@H](C(=O)N[C@@H](Cc1ccccc1)C(=O)O)[C@@H](C)O)[C@@H](C)CC [RH5_442] (H-IKLNIWRTF-OH); 3.15

Record log10 of IC50 for all entries; do not skip any.
1. CC(C)C[C@H](NC(=O)[C@H](Cc1ccc(O)cc1)NC(=O)[C@@H](N)CCC(N)=O)C(=O)N[C@@H](CCCCN)C(=O)N[C@@H](CC(=O)O)C(=O)NCC(=O)NCC(=O)N[C@@H](Cc1ccccc1)C(=O)N[C@@H](C)C(=O)N[C@@H](Cc1ccccc1)C(=O)O [AMA1_174] (H-QYLKDGGFAF-OH)
2. CC[C@H](C)[C@H](NC(=O)[C@H](CC(=O)O)NC(=O)[C@H](C)NC(=O)[C@H](Cc1ccc(O)cc1)NC(=O)[C@H](CCC(=O)O)NC(=O)[C@H](CC(=O)O)NC(=O)[C@H](CCCCN)NC(=O)[C@H](Cc1ccc(O)cc1)NC(=O)[C@@H](N)CCC(=O)O)C(=O)O [AMA1_527] (H-EYKDEYADI-OH)
3. CC[C@H](C)[C@H](NC(=O)[C@@H](NC(=O)[C@H](Cc1ccc(O)cc1)NC(=O)[C@@H](NC(=O)[C@H](Cc1ccc(O)cc1)NC(=O)[C@H](CCCCN)NC(=O)[C@H](CC(N)=O)NC(=O)[C@H](CC(C)C)NC(=O)[C@@H](N)Cc1ccc(O)cc1)C(C)C)[C@@H](C)O)C(=O)O [RIPR_0064] (H-YLNKYVYTI-OH)

1. 1.62
2. 3.32
3. 2.13
